Test system: SNB-78 CNS
method: NCI tumour cell line growth inhibition, 48 h
readout: TGI

CC(=O)Nc1ccc(/C=C/C(=O)c2sc(C(N)=S)nc2C)cc1 ... > 100 µM

Provide TGI values for the following items, in order.
1. CCCCCCCCCCCC(=O)OCC1OC(n2cc(F)c(=O)[nH]c2=O)C(N)C(O)C1O (stereo not given)
2. NC(=O)c1cc(C2OC(CO)C(O)C2O)nn1-c1ccc([N+](=O)[O-])cc1 (stereo not given)
3. COc1ccc(/C(Cl)=C(\C=O)c2ccc(Cl)c(Cl)c2)cc1OC
4. CC12CC3CC(C)(C1)CC(N=[N+]=[N-])(C3)C2

**A:**
["> 100 µM", "> 100 µM", "31.2 µM", "> 100 µM"]
